- EXPERIMENT: Solubility measurement of saturated solutions by HPLC at room temperature (0 h and 24 h)
- Assay type: physicochemical
- TEST_SETTINGS: buffered water with excipients, pH 4, aqueous with cosolvent or surfactant or cyclodextrin, thermodynamic from solid, CBS 30 mM pH 4.0, NaCl 3 mg/mL; SBE-beta-CD 40 mg/mL + Tween 80 5 mg/mL; 24 h; pH exp 4.2
PROPERTY_LABEL: solubility at 24 h

Q: Quick one: solubility at 24 h for COc1cc(N2CCNCC2)ccc1Nc1ncc2c(n1)-n1ccc(C(=O)Nc3c(C)cccc3C)c1CC2 ?
A: 4040 µg/mL

###

- EXPERIMENT: Solubility measurement of saturated solutions by HPLC at room temperature (0 h and 24 h)
- Type: physicochemical
- TEST_SETTINGS: buffered water with excipients, pH 4, aqueous with cosolvent or surfactant or cyclodextrin, thermodynamic from solid, CBS 30 mM pH 4.0, NaCl 3 mg/mL; SBE-beta-CD 40 mg/mL + Tween 80 5 mg/mL; 0 h; pH exp 4.1
PROPERTY_LABEL: solubility at 0 h (µg/mL)
Reply numerically in µg/mL, unit not repeated.

Q: # query: solubility at 0 h of entry COc1cc(N2CCNCC2)ccc1Nc1ncc2c(n1)-n1ccc(C(=O)Nc3c(C)cccc3C)c1CC2 [compound of formula (I)]
A: 2950
